- TGT: human IDO1 (LLTC-hIDO1 cells) (Homo sapiens, UniProt P14902)
- MEASUREMENT_PROTOCOL: Cell-based assay for IDO1 inhibition (kynurenine in supernatant)
- EXPERIMENTAL_SETUP: IDO1-transfected Lewis Lung carcinoma cells, 24 h; read-out: Cellular IC50
pIC50: −log10 of the molar value.
Consider the following compounds and their measured pIC50 readings.

{"columns": ["COMPOUND", "TGT", "EXPERIMENTAL_RESULT"],
 "data": [
  ["Nc1noc2nc(Oc3cccc(C(F)(F)F)c3)ccc12", "human IDO1 (LLTC-hIDO1 cells) (Homo sapiens, UniProt P14902)", "4.00 to 5.00"]
]}

Give pIC50 (human IDO1 (LLTC-hIDO1 cells) (Homo sapiens, UniProt P14902)) of the following compound: Nc1noc2nc(-c3ccco3)ccc12
5.00 to 6.00

Give pIC50 (human IDO1 (LLTC-hIDO1 cells) (Homo sapiens, UniProt P14902)) of the following compound: Nc1noc2ncc(Cl)cc12 [Compound 8, 5-Chloroisoxazolo[5,4-b]pyridin-3-amine]
> 6.00

Give pIC50 (human IDO1 (LLTC-hIDO1 cells) (Homo sapiens, UniProt P14902)) of the following compound: COc1ccccc1Oc1ccc2c(N)noc2n1
4.00 to 5.00

Give pIC50 (human IDO1 (LLTC-hIDO1 cells) (Homo sapiens, UniProt P14902)) of the following compound: Nc1noc2ncc(I)cc12 [Compound 16, 5-Iodoisoxazolo[5,4-b]pyridin-3-amine]
> 6.00

====

Consider the following compounds and their measured IC50 readings.
- TGT: Recombinant human IDO1 (rhIDO1) (Homo sapiens (Human), UniProt P14902)
- Sequence (P14902 whole entry): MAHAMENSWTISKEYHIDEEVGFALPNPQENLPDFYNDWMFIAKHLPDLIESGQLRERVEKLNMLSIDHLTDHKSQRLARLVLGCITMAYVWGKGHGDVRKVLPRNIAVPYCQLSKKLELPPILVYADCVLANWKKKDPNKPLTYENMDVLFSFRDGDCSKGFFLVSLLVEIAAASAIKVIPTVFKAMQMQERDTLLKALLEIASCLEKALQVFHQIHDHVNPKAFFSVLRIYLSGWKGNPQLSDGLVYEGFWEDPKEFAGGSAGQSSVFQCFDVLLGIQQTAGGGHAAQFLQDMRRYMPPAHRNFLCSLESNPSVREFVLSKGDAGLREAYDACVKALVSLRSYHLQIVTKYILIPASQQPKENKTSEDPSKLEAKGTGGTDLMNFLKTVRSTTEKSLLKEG
- MEASUREMENT_PROTOCOL: Enzymatic assay for IDO1 activity
- EXPERIMENTAL_SETUP: rhIDO1 9 nM, 80 μM TRP, 37° C. 30 min

For orientation, consider the following solved cases.
{"columns": ["COMPOUND", "RECORDED_ENDPOINT", "EXPERIMENTAL_RESULT"],
 "data": [
  ["Cc1cc(Cl)nc2onc(N)c12 [Compound 42]", "IC50", "< 1 µM"],
  ["CN(C)CCCOc1ccc2c(N)noc2n1 [Compound 76]", "IC50", "> 100 µM"],
  ["Nc1noc2ncc(I)cc12 [Compound 16, 5-Iodoisoxazolo[5,4-b]pyridin-3-amine]", "IC50", "1 to 10 µM"]
]}

Field: next compound
I am curious: what IC50 value has been reported for Nc1noc2nc(Oc3ccc(Cl)cc3)ccc12 [Compound 86] ?
> 100 µM

====

- TGT: human IDO1 (LLTC-hIDO1 cells) (Homo sapiens)
- MEASUREMENT_PROTOCOL: Cell-based assay for IDO1 inhibition (kynurenine in supernatant)
- EXPERIMENTAL_SETUP: IDO1-transfected Lewis Lung carcinoma cells, 24 h; read-out: Cellular IC50
Consider the following molecules and their measured IC50 readings.

For orientation, consider the following solved cases.
{"columns": ["MOLECULE", "IC50"],
 "data": [
  ["Nc1noc2nc(Oc3ccc(OC(F)(F)F)cc3)ccc12", "10 to 100 µM"],
  ["COc1ccc(Nc2ccc3c(N)noc3n2)cc1", "> 100 µM"],
  ["COC(=O)c1ccc2c(N)noc2n1", "10 to 100 µM"]
]}

Field: next molecule
Give IC50 (human IDO1 (LLTC-hIDO1 cells) (Homo sapiens)) of the following molecule: Nc1noc2nccc(-c3ccccc3)c12 [Compound 13, 4-Phenylisoxazolo[5,4-b]pyridin-3-amine]
> 100 µM
